Below: a set of entries, each annotated with reported Preemergence herbicidal rating ORYSAT.
# System: ORYSAT (Rice, Tebonnet)
# protocol: Preemergence herbicidal evaluation
# Assay type: in vivo, Oryza sativa, (L.) Tebonnet
# assayConditions: rate 0.1250 kg/ha; rated 4-5 weeks after treatment
Lab note: record the figure alone, no unit after it.

// below: answered compounds
[
  {
    "compound": "CC(C)S(=O)(=O)NC(=O)CC1SC(=Nc2cc(-n3c(=O)cc(C(F)(F)F)n(C)c3=O)c(F)cc2Cl)N(C)C1=O (stereo not shown) [Compound 119]",
    "testValue": 0.0
  },
  {
    "compound": "CCOC(=O)CN1C(=O)C(C(=O)OC)SC1=Nc1cc(-n2c(=O)cc(C(F)(F)F)n(C)c2=O)c(F)cc1Cl (stereo not shown) [Compound 128]",
    "testValue": 0.0
  },
  {
    "compound": "COC(=O)COC(=O)CN1C(=O)CSC1=Nc1cc(-n2c(=O)cc(C(F)(F)F)n(C)c2=O)c(F)cc1Cl [Compound 108]",
    "testValue": 1.0
  },
  {
    "compound": "Cn1c(C(F)(F)F)cc(=O)n(-c2cc(N=C3SCC(=O)N3Cc3ccccc3)c(Cl)cc2F)c1=O [Compound 26]",
    "testValue": 0.0
  }
]

# input Field: Preemergence herbicidal rating ORYSAT (ORYSAT (Rice, Tebonnet)). Entry: C[C@H](C(=O)O)N1C(=O)CSC1=Nc1cc(-n2c(=O)cc(C(F)(F)F)n(C)c2=O)c(F)cc1Cl [Compound 70]
# output 1.0

# input Short answer please: Preemergence herbicidal rating ORYSAT, ORYSAT (Rice, Tebonnet), entry Cn1c(C(F)(F)F)cc(=O)n(-c2cc(/N=C3/SC(CC(=O)O)C(=O)N3CC(=O)O)c(Cl)cc2F)c1=O (stereo not shown) [Compound 61]
# output 0.0

# input Tell me reported Preemergence herbicidal rating ORYSAT for C=CCOC(=O)CC1SC(=Nc2cc(-n3c(=O)cc(C(F)(F)F)n(C)c3=O)c(F)cc2Cl)N(CC=C)C1=O (stereo not shown) [Compound 65] , tested with ORYSAT (Rice, Tebonnet).
# output 1.0
